Data origin: patent US20210309732A1

target: T1, recombinant human GM-CSF (human, UniProt P04141 18-144); assay: ELISA on coated rhGM-CSF, UBA relative to 1D2
T1 construct: also called rhGM-CSF; CSF2
T1 sequence (P04141 18-144 limits assumed): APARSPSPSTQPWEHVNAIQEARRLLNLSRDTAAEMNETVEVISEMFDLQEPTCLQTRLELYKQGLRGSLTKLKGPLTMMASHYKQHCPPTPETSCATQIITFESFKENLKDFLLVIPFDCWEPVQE
QUANTITY MEASURED: binding affinity % of 1D2 (%)

BINDER	QUANTITY MEASURED	RESULT UNITS	VALUE OBSERVED
1D2 SDR mutant HK32R (antibody, V domains shown, not the clone labelled 32R, which is light chain V32R; also called X2 R) VH: QVQLVQSGAEVKKPGASVKVSCEASGYTFTDRYLHWVRQAPGQGLEWMAWINPKSGGTFYAQNFKGRVTVTRDTSINTAYLELTSLRLDDTSTYYCARGRDYYDQGAADLWGQGTMVTVSS VL: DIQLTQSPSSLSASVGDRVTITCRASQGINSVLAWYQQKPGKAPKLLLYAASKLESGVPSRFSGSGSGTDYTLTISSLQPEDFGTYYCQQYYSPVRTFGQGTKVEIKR	binding affinity % of 1D2	%	90
1D2 SDR mutant HR100E (antibody, IgG1, V domains shown, also called X4 E) VH: QVQLVQSGAEVKKPGASVKVSCEASGYTFTDKYLHWVRQAPGQGLEWMAWINPKSGGTFYAQNFKGRVTVTRDTSINTAYLELTSLRLDDTSTYYCARGEDYYDQGAADLWGQGTMVTVSS VL: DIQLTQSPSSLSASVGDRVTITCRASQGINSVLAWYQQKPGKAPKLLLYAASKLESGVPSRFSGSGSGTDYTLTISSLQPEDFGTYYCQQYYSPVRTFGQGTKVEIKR	binding affinity % of 1D2	%	92
1D2 SDR mutant HK32L (antibody, IgG1, V domains shown, also called X2 L) VH: QVQLVQSGAEVKKPGASVKVSCEASGYTFTDLYLHWVRQAPGQGLEWMAWINPKSGGTFYAQNFKGRVTVTRDTSINTAYLELTSLRLDDTSTYYCARGRDYYDQGAADLWGQGTMVTVSS VL: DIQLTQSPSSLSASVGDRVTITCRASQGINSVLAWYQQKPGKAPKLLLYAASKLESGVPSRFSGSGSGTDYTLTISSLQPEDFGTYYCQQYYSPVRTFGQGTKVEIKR	binding affinity % of 1D2	%	60
